Hi! I'm sharing some pIC50 results obtained with UniProtKB P26684.
Sequence (P26684 whole entry): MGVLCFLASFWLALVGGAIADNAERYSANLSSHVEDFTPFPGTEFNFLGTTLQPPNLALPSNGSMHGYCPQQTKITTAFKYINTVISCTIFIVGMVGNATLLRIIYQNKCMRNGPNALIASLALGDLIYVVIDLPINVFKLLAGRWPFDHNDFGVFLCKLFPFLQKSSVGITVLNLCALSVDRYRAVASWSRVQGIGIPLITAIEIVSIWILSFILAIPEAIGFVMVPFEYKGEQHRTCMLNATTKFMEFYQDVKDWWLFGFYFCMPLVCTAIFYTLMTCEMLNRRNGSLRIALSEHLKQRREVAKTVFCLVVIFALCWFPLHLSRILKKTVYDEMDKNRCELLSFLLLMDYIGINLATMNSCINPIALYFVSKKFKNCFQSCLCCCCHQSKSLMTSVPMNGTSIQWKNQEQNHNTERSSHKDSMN
Where a SMILES comes first, the peptide text is derived from it. Bridges are numbered along the chain shown (N, C = ends). [ ]: non-standard residue; d: D form. Ava = NCCCCC(=O)O
One number for each entry, as −log10 of the molar value.

Some entries whose results are on file:
* CC[C@H](C)[C@H](NC(=O)[C@H](CC(=O)O)NC(=O)[C@H](CC(C)C)NC(=O)[C@H](Cc1cnc[nH]1)NC(=O)[C@@H]1CSSC[C@H](N)C(=O)N[C@@H](CO)C(=O)N[C@@H](CO)C(=O)N[C@@H](CC(C)C)C(=O)N[C@@H](CCSC)C(=O)N[C@@H](CC(=O)O)C(=O)N[C@@H](CCCCN)C(=O)N[C@@H](CCC(=O)O)C(=O)N1)C(=O)N[C@H](C(=O)N[C@@H](Cc1c[nH]c2ccccc12)C(=O)O)[C@@H](C)CC (H-CSSLMDKECHLDIIW-OH; disulfide 1-9) | 4.31
* CC[C@H](C)[C@H](NC(=O)[C@H](CC(=O)O)NC(=O)[C@H](CC(C)C)NC(=O)[C@H](Cc1c[nH]cn1)NC(=O)[C@@H]1CSSC[C@H](N)C(=O)N[C@@H](CO)C(=O)N[C@@H](CO)C(=O)N[C@@H](CO)C(=O)N[C@@H](C(C)C)C(=O)N[C@@H](Cc2ccc(O)cc2)C(=O)N[C@@H](Cc2ccccc2)C(=O)N1)C(=O)N[C@H](C(=O)N[C@@H](Cc1c[nH]c2ccccc12)C(=O)O)[C@@H](C)CC (H-CSSSVYFCHLDIIW-OH; disulfide 1-8) | 5.92
* CC[C@H](C)[C@H](NC(=O)[C@H](CC(=O)O)NC(=O)[C@H](CC(C)C)NC(=O)[C@H](Cc1c[nH]cn1)NC(=O)[C@@H]1CSSC[C@H](N)C(=O)N[C@@H](CO)C(=O)N[C@@H](CC(=O)O)C(=O)N[C@@H](CCCCN)C(=O)N[C@@H](CCC(=O)O)C(=O)N[C@@H](C(C)C)C(=O)N[C@@H](Cc2ccc(O)cc2)C(=O)N[C@@H](Cc2ccccc2)C(=O)N1)C(=O)N[C@H](C(=O)N[C@@H](Cc1c[nH]c2ccccc12)C(=O)O)[C@@H](C)CC (H-CSDKEVYFCHLDIIW-OH; disulfide 1-9) | 5.46
* CC[C@H](C)[C@H](NC(=O)[C@H](CC(=O)O)NC(=O)[C@H](CC(C)C)NC(=O)[C@H](Cc1c[nH]cn1)NC(=O)[C@@H]1CSSC[C@H](N)C(=O)N[C@@H](CO)C(=O)NCCCCCCC(=O)N[C@@H](C(C)C)C(=O)N[C@@H](Cc2ccc(O)cc2)C(=O)N[C@@H](Cc2ccccc2)C(=O)N1)C(=O)N[C@H](C(=O)N[C@@H](Cc1c[nH]c2ccccc12)C(=O)O)[C@@H](C)CC | 5.60
* CC[C@H](C)[C@H](NC(=O)[C@H](CC(=O)O)NC(=O)[C@H](CC(C)C)NC(=O)[C@H](Cc1c[nH]cn1)NC(=O)[C@@H]1CSSC[C@H](N)C(=O)N[C@@H](CO)C(=O)N[C@@H](C(C)C)C(=O)N[C@@H](Cc2ccc(O)cc2)C(=O)N[C@@H](Cc2ccccc2)C(=O)N1)C(=O)N[C@H](C(=O)N[C@@H](Cc1c[nH]c2ccccc12)C(=O)O)[C@@H](C)CC (H-CSVYFCHLDIIW-OH; disulfide 1-6) | 5.55

The record that follows has no pIC50 shown yet.
// query What value of measured pIC50 is listed for CC[C@H](C)[C@H](NC(=O)[C@H](CC(=O)O)NC(=O)[C@H](CC(C)C)NC(=O)[C@H](Cc1c[nH]cn1)NC(=O)[C@@H]1CSSC[C@H](N)C(=O)N[C@@H](CO)C(=O)NCCCCC(=O)N[C@@H](C(C)C)C(=O)N[C@@H](Cc2ccc(O)cc2)C(=O)N[C@@H](Cc2ccccc2)C(=O)N1)C(=O)N[C@H](C(=O)N[C@@H](Cc1c[nH]c2ccccc12)C(=O)O)[C@@H](C)CC (H-CS[Ava]VYFCHLDIIW-OH; disulfide 1-7) ?
// result 5.74
